Origin of values: PubChem BioAssay AID1963972

Tested on: 945468-187-T-J2-PDC spheroids viability;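 also: spheroids exposed to compounds for seven days before reading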
Test: Anticancer human tumor 945468-187-T-J2-PDC patient-derived rectal carcinoma cell line growth inhibition [PI3K]
Settings: second compound 3.16 µM; first compound 3.16 µM; hits give low values; spheroids with HUVEC and MSC
Entries whose viability, T/C is below 70% take y; entries at or above 70% take n.

Example cases with answers are listed next.
MOLECULE	CLASSIFICATION
CC1(C)CCC(CN2CCN(c3ccc(C(=O)NS(=O)(=O)c4ccc(NCC5CCOCC5)c([N+](=O)[O-])c4)c(Oc4cnc5[nH]ccc5c4)c3)CC2)=C(c2ccc(Cl)cc2)C1 + Cc1nc(NC(=O)N2CCCC2C(N)=O)sc1-c1ccnc(C(C)(C)C(F)(F)F)c1	n
C[C@@H](NC(=O)c1ncnc(N)c1Cl)c1ncc(C(=O)Nc2cc(C(F)(F)F)c(Cl)cn2)s1 + CC(Nc1ncnc2nc[nH]c12)c1cc2cccc(Cl)c2c(=O)n1-c1ccccc1	n
Cn1ncc(Cl)c1-c1cc(C(=O)NC(CN)Cc2cccc(F)c2)sc1Cl (stereo not given) + Cc1nc(NC(=O)N2CCCC2C(N)=O)sc1-c1ccnc(C(C)(C)C(F)(F)F)c1	n

Please state whether viability, T/C is below 70% for CCCS(=O)(=O)Nc1ccc(F)c(C(=O)c2c[nH]c3ncc(-c4ccc(Cl)cc4)cc23)c1F + Cc1nc(NC(=O)N2CCCC2C(N)=O)sc1-c1ccnc(C(C)(C)C(F)(F)F)c1
y

Lab note: viability, T/C threshold 70%. Does this molecule come in strictly under it? CC1(C)CCC(Nc2ncc(C(F)(F)F)c(-c3c[nH]c4c(P(C)(C)=O)c(C#N)ccc34)n2)CN1 (stereo not given) + CC(Nc1ncnc2nc[nH]c12)c1cc2cccc(Cl)c2c(=O)n1-c1ccccc1
y
